The entries below pair compounds with IC50 values for Tyrosine-protein kinase JAK2 (Homo sapiens, UniProt O60674), as found in several publications.

Known results for compounds:
- COMPOUND: "Nc1cc2ccc1-c1ccnc(n1)Nc1ccc(OCC3CCCC3)c(c1)COCCCCNC2=O"
  IC50: "101 to 1000 nM"
- COMPOUND: "CC1CC(N2CC(CC#N)(n3cc(-c4ncnc5[nH]ccc45)cn3)C2)CCN1C(=O)c1cccc(F)c1 (single isomer, unassigned)"
  IC50: "≤ 10 nM"
- COMPOUND: "Cc1noc(C)c1S(=O)(=O)N1CCC(N2CC(CC#N)(n3cc(-c4ncnc5[nH]ccc45)cn3)C2)CC1"
  IC50: "10 to 50 nM"
- COMPOUND: "Cc1ccc(NC(=O)Nc2cccc(C(F)(F)F)c2)cc1-c1ccc2[nH]c3ncncc3c2c1"
  IC50: "> 1000 nM"
- COMPOUND: "CC(=O)Nc1ccc(Nc2nccc(-c3cnn(C(CC#N)CC4CCN(S(=O)(=O)c5ccn(C)n5)CC4)c3)n2)cc1 (racemic)"
  IC50: "< 100 nM"

// IC50 value for `CCC(CC)n1cc(-c2nc(-c3cnn(CCO)c3)cn3nccc23)cn1` : 10 to 100 nM

Record summary for CC1CCC(C(=O)NCC#N)CN1N(C)c1ncnc2[nH]ccc12 (centres unmarked) : reported IC50 = > 1000 nM

Note to self: IC50 recorded for `O=C1NCCCCOCc2cc(ccc2OCC2CC2)Nc2nccc(n2)-c2ccc1cc2[N+](=O)[O-]` was 1000 to 10000 nM

Measured IC50 of `CCN1CCN(Cc2cc(NC(=O)c3ccc(C(F)(F)F)c(-c4ccc5nc(NC(=O)C6CC6)cn5n4)c3)cc(C(F)(F)F)c2)CC1` : 1900 nM

compound `Cc1c(-c2nc(-c3cnn(C)c3)cc3nccn23)cnn1CCC#N` , IC50 observed: > 1000 nM

---

pIC50: −log10 of the molar value.
Ok so here's the combined literature set: pIC50 for Tyrosine-protein kinase JAK2 (Homo sapiens, UniProt O60674).

Consider the following illustrative entries.
- COMPOUND: "CCOC(=O)C1CCCN(N(C)c2ncnc3[nH]ccc23)C1 (stereo not drawn)"
  pIC50: "6.00 to 7.00"
- COMPOUND: "CCCCNc1nc(Nc2ccc3c(c2)NC[C@H](O)CO3)ncc1C(N)=O"
  pIC50: "> 8.00"
- COMPOUND: "Cn1cc(-c2cc3nccn3c(-c3ccn([C@H](CCF)[C@H]4CC4(F)F)c3)n2)cn1"
  pIC50: "7.00 to 8.00"
- COMPOUND: "Cn1cc(-c2cc3nccn3c(-c3cnn(C(CCF)C4CC4)c3)n2)cn1 (stereo not drawn)"
  pIC50: "7.00 to 8.00"
- COMPOUND: "CCS(=O)(=O)N1CC(CC#N)(n2cc(-c3nc(Nc4ccccc4)nc4cc(C)sc34)cn2)C1"
  pIC50: "< 6.00"

Entry O=c1[nH]cccc1Nc1nccc(N[C@H]2CC[C@H](CS(=O)(=O)N3CCCC(O)C3)CC2)n1 (relative stereo) , Tyrosine-protein kinase JAK2 (Homo sapiens, UniProt O60674) data, pIC50 value: > 7.00

Query `CNC(=O)c1csc(-c2cnc3[nH]ccc3c2N[C@@H]2CCCN(C(=O)CC#N)C2)n1` on Tyrosine-protein kinase JAK2 (Homo sapiens, UniProt O60674); pIC50 returned: 7.00 to 8.00

The compound CCC(Cn1ccc2cnc(Nc3cnn(CC(=O)OC[C@@H](C)O)c3)nc21)C(C)C (stereo partly drawn) on Tyrosine-protein kinase JAK2 (Homo sapiens, UniProt O60674): pIC50 was > 7.00

Tyrosine-protein kinase JAK2 (Homo sapiens, UniProt O60674) assay, compound `N#CCC1(n2cc(-c3ncnc4[nH]ccc34)cn2)CN(C2CCN(C(=O)c3cnccn3)CC2)C1` , recorded pIC50 = 7.30 to 8.00
